Sourced from patent US20190084939A1

# TARGET: Human FXR full length (Homo sapiens, UniProt Q96RI1)
# Construct: Human FXR full length and RXR full length was obtained from Ronald Evans' laboratory; expressed in transfected cells; host or cells: CV-1 cells
# PROTOCOL DETAILS: FXR activity screen, luciferase reporter in transfected CV-1 cells
# Assay type: cell-based
# EXPERIMENTAL SETUP: second round; CV-1 cells, 24 hours; read-out: 2nd RND EC50
We begin with a simple list: items and their reported EC50.
Unit nM implied. Number only.

// below: answered compounds
1) COC(=O)/C=C/c1cccc(N(Cc2ccc(-c3ccc4c(cnn4C)c3)cc2Cl)C(=O)[C@@H]2C[C@@H]3CC[C@H]2C3)c1
519
2) [2H]C(c1ccc(-c2ccc3c(cnn3C)c2)cc1)N(C(=O)C1CCCCC1)c1cccc(/C=C/C(=O)OC)c1 (stereo not shown)
254
3) COC(=O)/C=C/c1cccc(N(Cc2ccc(-c3ccc(N(C)C)cc3)cc2Cl)C(=O)[C@@H]2C[C@@H]3CC[C@H]2C3)c1
697
4) COC(=O)/C=C/c1cccc(N(Cc2ccc(-c3ccc4c(cnn4C)c3)cc2)C(=O)c2ccccc2)c1
720

Can you share its EC50? I mean this compound: [2H]C(c1ccc(-c2ccc3c(cnn3C)c2)cc1F)N(C(=O)c1ccccc1)c1cncc(/C=C/C(=O)OC)c1 (stereo not shown)
0.2

Can you share its EC50? I mean this compound: COC(=O)/C=C/c1cncc(N(Cc2cccc3cc4cnn(C)c4c(Cl)c23)C(=O)C2C[C@H]3CC[C@@H]2C3)c1 (stereo partly shown)
2700

Can you share its EC50? I mean this compound: [2H]C(c1ccc(-c2ccc3c(cnn3C)c2)cc1Cl)N(C(=O)C1CCCCC1)c1cccc(/C=C/C(=O)OC)c1 (stereo not shown)
475

----------
We begin with a simple list: items and their reported EC50.
# TARGET: Human FXR full length (Homo sapiens, UniProt Q96RI1)
# Construct: Human FXR full length and RXR full length was obtained from Ronald Evans' laboratory; expressed in transfected cells; host or cells: CV-1 cells
# PROTOCOL DETAILS: FXR activity screen, luciferase reporter in transfected CV-1 cells
# Type: cell-based
# EXPERIMENTAL SETUP: first round; CV-1 cells, 24 hours; read-out: 1st RND EC50
Unit nM implied. Number only.

1) COC(=O)/C=C/c1cccc(N(Cc2ccc(-c3ccc4c(cnn4C)c3)cc2)C(=O)C2CCCCC2)c1 [NSSK00004]
237
2) COC(=O)/C=C/c1cccc(N(Cc2ccc(-c3ccc4c(cnn4C)c3)cc2Cl)C(=O)C2CCCCC2)c1 [NSSK00091]
801
3) [2H]C(c1ccc(-c2ccc3c(cnn3C)c2)cc1F)N(C(=O)[C@@H]1C[C@@H]2CC[C@H]1C2)c1cncc(/C=C/C(=O)OC)c1 (stereo partly drawn) [NSSK00066]
5400
4) COC(=O)/C=C/c1cc(F)cc(N(Cc2ccc(-c3ccc4c(cnn4C)c3)cc2F)C(=O)c2ccccc2)c1 [NSSK00099]
2100
5) COC(=O)/C=C/c1cc(F)cc(N(Cc2cccc3cc4cnn(C)c4c(F)c23)C(=O)C2CCCCC2)c1 [NSSK00007]
473

Can you share its EC50? I mean this compound: [2H]C(c1ccc(-c2ccc(N(C)C)cc2)cc1)N(C(=O)C1CCCCC1)c1cc(F)cc(/C=C/C(=O)OC)c1 (stereo not drawn) [NSSK00025]
150

Can you share its EC50? I mean this compound: COC(=O)/C=C/c1cccc(N(Cc2ccc(-c3ccc(N(C)C)cc3)cc2Cl)C(=O)C2CCCCC2)c1 [NSSK00080]
623

Can you share its EC50? I mean this compound: COC(=O)/C=C/c1cccc(N(Cc2cccc3cc4cnn(C)c4c(F)c23)C(=O)C2CCCCC2)c1 [NSSK00006]
273

----------
# TARGET: Human FXR full length (Homo sapiens, UniProt Q96RI1)
# Construct: Human FXR full length and RXR full length was obtained from Ronald Evans' laboratory; expressed in transfected cells; host or cells: CV-1 cells
# PROTOCOL DETAILS: FXR activity screen, luciferase reporter in transfected CV-1 cells
# Type: cell-based
# EXPERIMENTAL SETUP: fexaramine control in the retest; read-out: Fex EC50
READOUT TYPE: EC50 (nM)
Unit nM implied. Number only.

Can you share its EC50? I mean this molecule: COC(=O)/C=C/c1cccc(N(Cc2ccc(-c3ccc(N(C)C)cc3)cc2)C(=O)C2CCCCC2)c1
63

----------
# TARGET: Human FXR full length (Homo sapiens)
# Construct: Human FXR full length and RXR full length was obtained from Ronald Evans' laboratory; expressed in transfected cells; host or cells: CV-1 cells
# PROTOCOL DETAILS: FXR activity screen, luciferase reporter in transfected CV-1 cells
# Type: cell-based
# EXPERIMENTAL SETUP: first round; CV-1 cells, 24 hours; read-out: 1st RND EC50
READOUT TYPE: pEC50
Bear in mind: pEC50 is minus log10 of a mol/L concentration; give just that figure.

// below: answered molecules
1) COC(=O)/C=C/c1cccc(N(Cc2ccc(-c3ccc4c(cnn4C)c3)cc2Cl)C(=O)[C@@H]2C[C@@H]3CC[C@H]2C3)c1
6.19
2) [2H]C(c1ccc(-c2ccc(N(C)C)cc2)cc1)N(C(=O)[C@@H]1C[C@@H]2CC[C@H]1C2)c1cncc(/C=C/C(=O)OC)c1 (stereo partly drawn)
6.23
3) [2H]C(c1ccc(-c2ccc(N(C)C)cc2)cc1Cl)N(C(=O)[C@@H]1C[C@@H]2CC[C@H]1C2)c1cc(F)cc(/C=C/C(=O)OC)c1 (stereo partly drawn)
6.64
4) [2H]C(c1ccc(-c2ccc3c(cnn3C)c2)cc1)N(C(=O)C1CCCCC1)c1cc(F)cc(/C=C/C(=O)OC)c1 (stereo not drawn)
6.47
5) COC(=O)/C=C/c1cncc(N(Cc2ccc(-c3ccc(N(C)C)cc3)cc2F)C(=O)C2CCCCC2)c1
6.16

Continue with the next molecule.
Can you share its pEC50? I mean this molecule: [2H]C(c1ccc(-c2ccc(N(C)C)cc2)cc1)N(C(=O)C1CCCCC1)c1cccc(/C=C/C(=O)OC)c1 (stereo not drawn)
6.75

----------
We begin with a simple list: items and their reported EC50.
# TARGET: Human FXR full length (Homo sapiens)
# Construct: Human FXR full length and RXR full length was obtained from Ronald Evans' laboratory; expressed in transfected cells; host or cells: CV-1 cells
# Sequence (Q96RI1 1-476 isoform Q96RI1-1): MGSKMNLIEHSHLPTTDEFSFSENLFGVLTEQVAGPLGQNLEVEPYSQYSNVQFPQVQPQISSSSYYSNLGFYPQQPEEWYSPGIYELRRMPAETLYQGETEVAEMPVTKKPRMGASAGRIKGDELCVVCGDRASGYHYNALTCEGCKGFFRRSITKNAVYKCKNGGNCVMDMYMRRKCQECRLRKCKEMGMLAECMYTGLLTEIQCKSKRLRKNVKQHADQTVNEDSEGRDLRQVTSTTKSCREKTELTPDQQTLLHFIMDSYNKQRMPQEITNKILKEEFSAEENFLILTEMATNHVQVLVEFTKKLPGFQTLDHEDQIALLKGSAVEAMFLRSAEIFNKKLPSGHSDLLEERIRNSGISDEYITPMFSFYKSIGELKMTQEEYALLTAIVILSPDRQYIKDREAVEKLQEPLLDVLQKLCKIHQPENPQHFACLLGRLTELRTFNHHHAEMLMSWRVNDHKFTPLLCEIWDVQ
# Sequence (P19793 1-462 partner): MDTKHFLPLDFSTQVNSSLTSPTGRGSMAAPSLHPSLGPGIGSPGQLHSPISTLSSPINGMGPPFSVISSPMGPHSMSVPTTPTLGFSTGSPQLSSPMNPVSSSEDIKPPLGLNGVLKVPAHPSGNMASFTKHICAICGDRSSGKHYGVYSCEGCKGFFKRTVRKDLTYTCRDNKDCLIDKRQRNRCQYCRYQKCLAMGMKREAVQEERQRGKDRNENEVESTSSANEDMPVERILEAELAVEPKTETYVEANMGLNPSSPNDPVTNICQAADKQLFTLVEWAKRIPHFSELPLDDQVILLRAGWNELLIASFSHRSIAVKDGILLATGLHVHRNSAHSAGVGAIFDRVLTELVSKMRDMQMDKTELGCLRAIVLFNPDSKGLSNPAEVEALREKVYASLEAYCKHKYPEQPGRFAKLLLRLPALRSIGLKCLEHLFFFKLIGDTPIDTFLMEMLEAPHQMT
# PROTOCOL DETAILS: FXR activity screen, luciferase reporter in transfected CV-1 cells
# Assay type: cell-based
# EXPERIMENTAL SETUP: first round; CV-1 cells, 24 hours; read-out: 1st RND EC50
Kindly format the answer as number then unit.

1) COC(=O)/C=C/c1cc(F)cc(N(Cc2ccc(-c3ccc4c(cnn4C)c3)cc2Cl)C(=O)C2CCCCC2)c1 [NSSK00097]
866 nM
2) [2H]C(c1ccc(-c2ccc(N(C)C)cc2)cc1Cl)N(C(=O)c1ccccc1)c1cc(F)cc(/C=C/C(=O)OC)c1 (centres unmarked) [NSSK00050]
1700 nM
3) [2H]C(c1ccc(-c2ccc(N(C)C)cc2)cc1F)N(C(=O)[C@@H]1C[C@@H]2CC[C@H]1C2)c1cncc(/C=C/C(=O)OC)c1 (some centres unmarked) [NSSK00029]
605 nM
4) [2H]C(c1ccc(-c2ccc(N(C)C)cc2)cc1)N(C(=O)c1ccccc1)c1cncc(/C=C/C(=O)OC)c1 (centres unmarked) [NSSK00063]
3000 nM
5) [2H]C(c1ccc(-c2ccc(N(C)C)cc2)cc1)N(C(=O)[C@@H]1C[C@@H]2CC[C@H]1C2)c1cccc(/C=C/C(=O)OC)c1 (some centres unmarked) [NSSK00107]
450 nM
6) COC(=O)/C=C/c1cncc(N(Cc2ccc(-c3ccc4c(cnn4C)c3)cc2Cl)C(=O)c2ccccc2)c1 [NSSK00092]
3400 nM
7) [2H]C(c1ccc(-c2ccc(N(C)C)cc2)cc1)N(C(=O)C1CCCCC1)c1cncc(/C=C/C(=O)OC)c1 (centres unmarked) [NSSK00062]
926 nM
8) COC(=O)/C=C/c1cc(F)cc(N(Cc2ccc(-c3ccc(N(C)C)cc3)cc2Cl)C(=O)C2CCCCC2)c1 [NSSK00117]
983 nM

Please provide the recorded EC50 for [2H]C(c1ccc(-c2ccc(N(C)C)cc2)cc1Cl)N(C(=O)C1CCCCC1)c1cc(F)cc(/C=C/C(=O)OC)c1 (centres unmarked) [NSSK00072] , tested on Human FXR full length (Homo sapiens).
1100 nM

Please provide the recorded EC50 for COC(=O)/C=C/c1cncc(N(Cc2ccc(-c3ccc(N(C)C)cc3)cc2)C(=O)[C@@H]2C[C@@H]3CC[C@H]2C3)c1 [NSSK00059] , tested on Human FXR full length (Homo sapiens).
1570 nM

Please provide the recorded EC50 for COC(=O)/C=C/c1cc(F)cc(N(Cc2ccc(-c3ccc(N(C)C)cc3)cc2F)C(=O)[C@@H]2C[C@@H]3CC[C@H]2C3)c1 [NSSK00044] , tested on Human FXR full length (Homo sapiens).
149 nM
